- Test system: A549
- procedure.text: Antiproliferative activity against EGFR positive human A549 cells assessed as inhibition of cell growth incubated for 72 hrs by MTT assay
- Assay type: functional, cell-based
- experimental.conditions: A549, 72 h
pIC50: −log10 of the molar value.
metric.name: pIC50

a. CNC(=O)c1ccccc1Nc1nc(Nc2ccc3c(C(=O)N4CCOCC4)c(C)[nH]c3c2)ncc1Cl
b. Cc1cc(Nc2ncc(Cl)c(Nc3ccccc3S(=O)(=O)C(C)C)n2)c(OC(C)C)cc1C1CCNCC1
c. CCOC(=O)c1c(C)[nH]c2cc(Nc3ncc(Cl)c(Nc4ccccc4NS(C)(=O)=O)n3)ccc12
# sort list by recorded pIC50, greatest to least To answer, arrange all of the labels according to the requested order.
c, b, a
(c: 5.83, b: 5.57, a: 5.24)
